The values you see were collected from PubChem BioAssay (NCI).

test system: OVCAR-4 ovarian; experiment: NCI tumour cell line growth inhibition, 48 h; in the data active means GI50 below about 0.43 µM; inactive means the rest
Reply using exactly one outcome from yes (1) for active, no (0) for inactive

Some solved cases for reference:
CCCCc1oc2ccccc2c1C(=O)c1cc(I)c(OCCN(CC)CC)c(I)c1: no (0)
C#CCOc1cccc(Nc2ncnc3c2ncn3C2CCN(C(=O)CCl)C2)c1 (configuration not stated): no (0)
COc1ccc(-c2cc3nccn3c(Nc3ncccc3C(N)=O)n2)cc1OC: no (0)

Ask | Which result was noted for this compound in the test: `CCN1CCN(c2cc(C)nc(NCc3cc(Nc4ccnc5cc(Cl)ccc45)ccc3F)n2)CC1`
Reply | no (0)

Ask | // next record `COc1cc(/C=N/O)nc(-c2ccccn2)c1`
Reply | yes (1)

Ask | // next record `COc1ccc(Cn2cc3c(c2-c2ccccc2)CCc2cncnc2-3)cc1`
Reply | no (0)

Ask | // next record `Cc1ccc(C(=O)Nc2ccccc2C(=O)N/N=C(\c2ccccc2)c2ccccn2)cc1`
Reply | yes (1)

----------
tested on: DU-145 prostate; assay: NCI tumour cell line growth inhibition, 48 h
experimental_readout: TGI

Sample records with TGI:
CC(=O)O[C@H]1CC[C@H]2[C@@H]3CC[C@H]4Nc5c(cnn5S(C)(=O)=O)C[C@]4(C)[C@H]3CC[C@]12C: > 100 µM
O=C1O[C@H](COC(=O)c2ccccc2)[C@@H](OC(=O)c2ccccc2)C=C1OC(=O)c1ccccc1: > 100 µM
CCOC(=O)c1[nH]n(-c2ccccc2)c(=O)c1C=NC(=S)C(N)=S: > 100 µM
Cc1cc2nc(NS(=O)(=O)c3cc(C)c(Cl)cc3S)[nH]c2cc1C: > 100 µM
CCNC(=O)CCCCC(=O)c1c(C)[nH]c(/C=C2\N=C(c3ccc[nH]3)C=C2OC)c1C: 11 µM
COC(=O)C1=C2Nc3ccccc3C23CCN2C(O)C4(CC5CC67CCOC6CCN6CCC8(c9cccc(OC)c9N(C4)C58O)C67)C4OCCC4(C1)C23 (stereo not drawn): > 100 µM

Ask | Give the measured TGI of `COc1ccc(Cn2c3c(c4c(O)cccc42)C(=O)c2ccccc2-3)cc1` .
Reply | 24.9 µM

Ask | // next record `O=C(Nn1c2c(sc1=NC1CC1)C(=O)c1ccccc1C2=O)c1cc2ccc1CCc1ccc(cc1)CC2`
Reply | 3.43 µM

----------
tested on: SW-620 colon; assay: NCI tumour cell line growth inhibition, 48 h
The entries below come with measured GI50 values attached.

Ask | Give the measured GI50 of `c1cc(-c2cnn3nc(N4CCOCC4)ccc23)nc(NC2CC2)n1` .
Reply | 8.9 µM

Ask | // next record `CO[C@@]12[C@H](COC(N)=O)C3=C(C(=O)C(C)=C(N)C3=O)N1C[C@@H]1N[C@@H]12`
Reply | 0.665 µM

Ask | // next record `CN(C)CCN1C(=O)c2cccc3c(-c4ccc5ncn(C6CCCCC6)c5c4)ccc(c23)C1=O`
Reply | 1.06 µM

Ask | // next record `CN(C)S(=O)(=O)c1cccc(-c2nc3sc4c(c3c(=O)[nH]2)CCCC4)c1`
Reply | 1.78 µM

Ask | // next record CCCCCCCCCCC(CN(CC)CC)C(O)c1ccccc1 (centres undefined)
Reply | 1.8 µM

Ask | // next record C#CCOc1cccc(Nc2ncnc3c2ncn3C2CCN(C(=O)CCl)C2)c1 (centres undefined)
Reply | 18.4 µM

Ask | // next record `O=C(/C=C\c1ccc(OCCCCCC[P+](c2ccccc2)(c2ccccc2)c2ccccc2)cc1)c1ccc2c(c1)OCCO2`
Reply | 1.11 µM

Ask | // next record `O=C1/C(=C/c2ccc(C(F)(F)F)cc2)COc2ccc(O)cc21`
Reply | 1.71 µM

Ask | // next record `CC(=O)[CH-]C(=O)c1ccccc1.CC(=O)[CH-]C(=O)c1ccccc1.CC12CC3(C)CC(C)(C1)CC([O-])(C2)C3.CC[O-].[Ti+4]`
Reply | 32.4 µM
